# credit: PubChem BioAssay (NCI)

# System: SK-MEL-5 melanoma
# test-summary: NCI-60 one-dose screen, 48 h
# recorded-conditions: 10 µM
The panel holds about 83,000 compounds, 20% with a hit somewhere; the sample as a whole holds those more often. Calls of active or inactive are those of the source. How the source made its calls: active means growth percent below 10; inactive means the rest.
Reply using exactly one outcome from active, inactive

Problem: For `O=S(=O)(Oc1ccc(-c2ccc3sccc3c2)cc1)c1ccccc1` , what call appears in the results of this test?
Result: inactive

Problem: Recorded call for `CC[C@@H]1NC(=O)[C@H]([C@H](O)[C@H](C)C/C=C/c2ccc(CN3C(=O)CCCC3=O)cc2)N(C)C(=O)[C@H](C(C)C)N(C)C(=O)[C@H](CC(C)C)N(C)C(=O)[C@H](CC(C)C)N(C)C(=O)[C@@H](C)NC(=O)[C@H](C)NC(=O)[C@H](CC(C)C)N(C)C(=O)[C@H](C(C)C)NC(=O)[C@H](CC(C)C)N(C)C(=O)CN(C)C1=O` ?
Result: inactive

Problem: Status in this test for `CC(C)(C)OC(=O)N1CCc2c(sc3ncnc(N/N=C/c4ccc(Br)cc4)c23)C1` ?
Result: inactive

Problem: Outcome? `CSc1nc(S(C)(=O)=O)nc2[nH]c(=O)[nH]c12`
Result: inactive

Problem: What outcome does the record of this test show for `Cc1nn(-c2ccccc2)c2nc(Cl)c(C=O)c(-c3ccccc3)c12` ?
Result: inactive

Problem: Tell me the assay call for COc1ccc(/C=c2\sc3n(c2=O)C(c2cc(OC)c(OC)c(OC)c2)C=C(c2ccc(OC)c(OC)c2)N=3)cc1OC (configuration not stated) please.
Result: inactive

Problem: What did the test return for `O=C(CCCCCCC(=O)Nc1ccccc1)NO` ?
Result: active

###

# System: NCI-H460 lung
# test-summary: NCI-60 one-dose screen, 48 h (100 = growth as untreated, 0 = no growth, -100 = all killed)
# recorded-conditions: 10 µM
This is part of a sample that, as a whole, favours compounds with a hit. Of some 83,000 tested, about 20% had one in any assay.
outcome-measure: growth (%)
All answers are understood in %, so give the number only.

Problem: Quick check: growth on NCI-H460 lung, item `O=C1c2c(c(=O)[nH]c3ccccc23)CCN1Cc1ccccc1` ?
Result: 108

Problem: Missing value: growth, NCI-H460 lung, entry CC[C@@H](C(=O)[C@@H](C)[C@@H](O)[C@H](C)[C@@H]1O[C@@H]([C@@H](CC)C(=O)N(CC)CC)CC[C@@H]1C)C1O[C@]2(C=CC(=O)[C@]3(CC[C@@](C)([C@H]4CC[C@](O)(CC)[C@H](C)O4)O3)O2)[C@H](C)C[C@@H]1C (some centres undefined) . Fill in?
Result: 18.5

Problem: // lookup growth | system=NCI-H460 lung | key= `CC(C)(C)c1ccc(S(=O)(=O)N[C@H]2CC[C@H]3[C@@H]4CCc5cc(OS(=O)(=O)O)ccc5[C@H]4CC[C@]23C)cc1`
Result: 26.2

Problem: Request: growth, test system NCI-H460 lung, entry `CC1=NN(C(=O)c2nn(-c3ccc(Cl)cc3)cc2O)C(=O)C1`
Result: 24

###

# Tested on: SK-OV-3 ovarian
# test-summary: NCI-60 one-dose screen, 48 h
# recorded-conditions: 10 µM
About 83,000 compounds went through this panel and 20% of them were active in at least one assay; those are over-represented in the sample as a whole. Activity calls are given as the source filed them. Rule for the calls: active = growth percent below 10; inactive = the rest.
Bench note: report the call from active, inactive

Problem: Recorded test call requested for `COc1cc(-c2csc(NC(=O)Nc3ccc(Cl)c(C(F)(F)F)c3)n2)cc(OC)c1OC`
Result: active

Problem: Entry `CNC(=O)c1cn(C2CC2)c2cc(N3CCN(C(=O)c4cc(OC)c(OC)c(OC)c4)CC3)c(F)cc2c1=O` : call = ?
Result: inactive

Problem: Recorded test outcome, item `CNC(=O)c1cc(Oc2ccc3c(c2)sc2nc(-c4ccc(NC(=O)Nc5ccc(Cl)c(C(F)(F)F)c5)cc4)cn23)ccn1`
Result: inactive

Problem: What outcome does the record of this test show for `COc1ccc(-c2nn(-c3cccc(Cl)c3)cc2-c2c(C#N)c(N)n(N)c(=O)c2C#N)cc1` ?
Result: inactive

Problem: What call does the record list for `CN(C)CCCOc1ccc(NC2=C(Cl)C(=O)C(Nc3ccc(OCCCN(C)C)cc3)=C(Cl)C2=O)cc1` ?
Result: inactive

Problem: Entry `COC(=O)c1cc2oc(/C=C3/SC(=S)N(N)C3=O)cc2n1Cc1ccccc1` : call = ?
Result: inactive

Problem: Entry `COc1ccc(C(=O)COc2cccc(/C=C3\Cc4ccccc4C3=O)c2)cc1` : call = ?
Result: inactive

Problem: Answer briefly: the call reported for `C=CCn1c(SCC(=O)Nc2ccc(C(=O)/C=C/c3ccc(Cl)cc3)cc2)nnc1-c1cc(-c2ccccc2)nc2ccccc12` in this assay.
Result: inactive

Problem: Called result for `O=C1CCn2c1c(O)c1ccccc1c2=O`
Result: inactive
